# assayTarget: human PCSK9 / human LDLR EGFa domain (Homo sapiens)
# Sequence (Q8NBP7 153-692): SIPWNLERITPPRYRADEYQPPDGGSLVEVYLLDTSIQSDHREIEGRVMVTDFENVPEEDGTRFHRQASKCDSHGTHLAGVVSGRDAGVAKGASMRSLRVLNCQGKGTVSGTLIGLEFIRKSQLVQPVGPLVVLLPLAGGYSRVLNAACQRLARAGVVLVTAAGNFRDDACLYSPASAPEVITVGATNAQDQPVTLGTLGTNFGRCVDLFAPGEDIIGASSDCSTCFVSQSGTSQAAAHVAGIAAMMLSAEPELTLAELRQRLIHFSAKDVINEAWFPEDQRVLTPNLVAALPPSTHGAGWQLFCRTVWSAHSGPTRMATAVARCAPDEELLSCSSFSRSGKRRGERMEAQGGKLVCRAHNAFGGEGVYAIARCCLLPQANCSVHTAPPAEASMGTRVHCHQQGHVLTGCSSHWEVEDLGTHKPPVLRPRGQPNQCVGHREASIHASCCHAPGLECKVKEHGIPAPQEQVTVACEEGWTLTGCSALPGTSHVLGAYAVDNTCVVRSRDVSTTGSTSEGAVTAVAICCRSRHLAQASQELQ
# assayProtocol: TR-FRET assay of inhibition of the PCSK9-LDLR protein-protein interaction
# conditionLabel: 20 nM human PCSK9, 20 nM human LDLR EGFa domain, 2 hours room temperature
Numbered stars: 1 amine (or outer) side, 2 acyl side, 3 side chain; on linkers, the order of the positions; unused ones are H or OH. Bridge positions count the residues as written; N and C are the ends. Square brackets hold non-standard residues; d marks the D form. Peptide text beside a SMILES is read from it. X6 = O=C([C@H](Cc1cccc(OCC=[*:3])c1)N[*:1])[*:2]; Phe(4-COOH) = N[C@@H](Cc1ccc(C(=O)O)cc1)C(=O)O; Trp(5-F) = N[C@@H](Cc1c[nH]c2ccc(F)cc12)C(=O)O; Bip = N[C@@H](Cc1ccc(-c2ccccc2)cc1)C(=O)O; Phe(3-Cl) = N[C@@H](Cc1cccc(Cl)c1)C(=O)O; X1 = O=C(CCSCc1cccc(CSCCN[*:1])c1)[*:2]; 1Nal = N[C@@H](Cc1cccc2ccccc12)C(=O)O; mXylylene = c1cc(C[*:1])cc(C[*:2])c1; X7 = O=C(CN(CC=[*:3])[*:1])[*:2]; 3Pal = N[C@@H](Cc1cccnc1)C(=O)O; aThr = C[C@H](O)[C@H](N)C(=O)O; αMeP = C[C@@]1(C(=O)O)CCCN1; Thp = NC1(C(=O)O)CCOCC1; Ahx = NCCCCCC(=O)O; Mpa = O=C(O)CCS
// reported IC50 per item
propertyMeasured: IC50

INSERT INTO measurements (molecule, valueobserved) VALUES
  ('C[C@@H]1NC(=O)CCSCc2cccc(c2)CSCCNC(=O)[C@@H]2CCCN2C(=O)[C@H](Cc2ccccc2)NC(=O)[C@H](C)NC(=O)[C@@H]2CCCN2C(=O)[C@H](Cc2c[nH]c3ccc(F)cc23)NC(=O)[C@H](Cc2c[nH]c3ccc(F)cc23)NC(=O)[C@@H](C)NC1=O [Compound 062] (cyclo(AFP[X1]A[dA][Trp(5-F)][Trp(5-F)]P))', '0.001 to 0.1 µM'),
  ('COc1ccc(C[C@@H]2NC(=O)[C@H](C)NC(=O)[C@@H]3CCCN3C(=O)[C@H](NC(=O)[C@H](Cc3c[nH]c4ccc(F)cc34)NC(=O)[C@@H](C)NC(C)=O)Cc3cn(c4ccc(F)cc34)Cc3cn(nn3)-c3cccc(c3)CSCCNC(=O)[C@]3(C)CCCN3C2=O)cc1 [Compound 102]', '0.001 to 0.1 µM'),
  ('C[C@@H]1NC(=O)[C@@H]2CCCN2C(=O)[C@H](Cc2cccc(Cl)c2)NC(=O)[C@H](Cc2c[nH]c3ccc(F)cc23)NC(=O)CNC(=O)[C@H](CCCCN)NC(=O)CCSCc2cccc(c2)CSC[C@@H](C(N)=O)NC(=O)[C@@H]2CCCN2C(=O)[C@H](Cc2ccc(O)cc2)NC1=O [Compound 005] ([Mpa]KG[Trp(5-F)][Phe(3-Cl)]PAYPC-NH2; linker 1-10 via mXylylene)', '0.1 to 1 µM'),
  ('C[C@H](O)[C@@H]1NC(=O)CNC(=O)[C@H](CCCCN)NC(=O)CCSCc2cccc(c2)CSC[C@@H](C(N)=O)NC(=O)[C@]2(C)CCCN2C(=O)[C@H](Cc2ccc(O)cc2)NC(=O)[C@H](Cc2cnc[nH]2)NC(=O)[C@H](CC(=O)O)NC(=O)[C@H](Cc2c[nH]c3ccc(F)cc23)NC1=O [Compound 114] ([Mpa]KG[aThr][Trp(5-F)]DHY[αMeP]C-NH2; linker 1-10 via mXylylene)', '0.1 to 1 µM'),
  ('COc1ccc(C[C@@H]2NC(=O)[C@H](C)NC(=O)CN3CCCCOc4cccc(c4)C[C@H](NC(=O)CNC(=O)CCCCCNC(=O)c4ccc(cc4)C[C@@H](C(N)=O)NC(=O)[C@]4(C)CCCN4C2=O)C(=O)N[C@@H](Cc2c[nH]c4ccc(F)cc24)C3=O)cc1 [Compound 124]', '0.1 to 1 µM'),
  ('C[C@@H]1NC(=O)[C@@H]2CCCN2C(=O)[C@H](Cc2cccnc2)NC(=O)[C@H](Cc2c[nH]c3ccc(F)cc23)NC(=O)CNC(=O)[C@H](CCCCN)NC(=O)CCSCc2cccc(c2)CSC[C@@H](C(N)=O)NC(=O)[C@@H]2CCCN2C(=O)[C@H](Cc2ccc(O)cc2)NC1=O [Compound 020] ([Mpa]KG[Trp(5-F)][3Pal]PAYPC-NH2; linker 1-10 via mXylylene)', '21 to 50 µM'),
  ('COc1ccc(C[C@@H]2NC(=O)[C@H]([C@@H](C)O)NC(=O)CN3CCCCOc4cccc(c4)C[C@H](NC(=O)[C@@H](C)NC(=O)[C@H](C)NC(=O)CCSCc4cccc(c4)CSCCNC(=O)[C@]4(C)CCCN4C2=O)C(=O)N[C@H](Cc2c[nH]c4ccc(F)cc24)C3=O)cc1 [Compound 126]', '0.001 to 0.1 µM'),
  ('C[C@@H]1NC(=O)[C@@H]2CCCN2C(=O)[C@H](Cc2ccc(-c3ccccc3)cc2)NC(=O)[C@H](Cc2c[nH]c3ccc(F)cc23)NC(=O)CNC(=O)[C@H](CCCCN)NC(=O)CCSCc2cccc(c2)CSC[C@@H](C(N)=O)NC(=O)[C@@H]2CCCN2C(=O)[C@H](Cc2ccc(O)cc2)NC1=O [Compound 017] ([Mpa]KG[Trp(5-F)][Bip]PAYPC-NH2; linker 1-10 via mXylylene)', '0.1 to 1 µM'),
  ('COc1ccc(C[C@@H]2NC(=O)[C@H](C)NC(=O)CN3C/C=C\COc4cccc(c4)C[C@H](NC(=O)CNC(=O)CCCCCNC(=O)c4ccc(cc4)C[C@@H](C(N)=O)NC(=O)[C@]4(C)CCCN4C2=O)C(=O)N[C@@H](Cc2c[nH]c4ccc(F)cc24)C3=O)cc1 [Compound 121] ([Ahx]G[X6][Trp(5-F)][X7]AY(Me)[αMeP][Phe(4-COOH)]-NH2; staple (Z) 3-5; lactam N-9)', '0.1 to 1 µM'),
  ('C[C@@H]1NC(=O)[C@@H]2CCCN2C(=O)[C@H](Cc2c[nH]c3ccc(F)cc23)NC(=O)[C@H](Cc2c[nH]c3ccc(F)cc23)NC(=O)[C@@H](C)NC(=O)C2(CCOCC2)NC(=O)CCSCc2cccc(c2)CSCCNC(=O)[C@@H]2CCCN2C(=O)[C@H](Cc2ccc(O)cc2)NC1=O [Compound 031] (cyclo(AYP[X1][Thp][dA][Trp(5-F)][Trp(5-F)]P))', '0.1 to 1 µM'),
  ('C[C@@H]1NC(=O)[C@@H]2CCCN2C(=O)[C@H](Cc2c[nH]c3ccc(F)cc23)NC(=O)[C@H](Cc2cccc3ccccc23)NC(=O)[C@@H](C)NC(=O)[C@@H]2CCCN2C(=O)CCSCc2cccc(c2)CSCCNC(=O)[C@@H]2CCCN2C(=O)[C@H](Cc2cccc3ccccc23)NC1=O [Compound 055] (cyclo([1Nal]P[X1]P[dA][1Nal][Trp(5-F)]PA))', '1 to 12.1 µM');

Data provenance is patent US11814445B2.
